B1: CPEB3 Ribozyme (parent)
chain: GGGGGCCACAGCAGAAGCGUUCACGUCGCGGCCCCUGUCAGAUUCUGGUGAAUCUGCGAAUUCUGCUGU

Variants of: B1
Assay: self-cleavage, relative activity (ratio to wild type); higher = more cleavage; co-transcriptional
Lab note: compare self-cleavage against 0.2. Equal or greater, write Fulfilled. Smaller, write Not fulfilled.

GGGGGCCACAGCAGAAGGGUUCACGUCGCGGCCCCUGUCAGAUUCUGGUGAAUCUGCGAACUCUGCUGU [C18G U61C] = Fulfilled
GGGGGCCACAGCAGAAGCGUUCACGUCGCGGCCCCUGUCAGAUUCUGGUGAAUCUGCGAAUUCCACUGU [U64C G65A] = Fulfilled
GAGGGCCACAGCAGAAGCGUUCACGUCGCGGCCCCGGUCAGAUUCUGGUGAAUCUGCGAAUUCUGCUGU [G2A U36G] = Fulfilled
GGGGGCCACAGCAGAAGCGUUCACGUCGCGGACCCUGUCAGAUUCUGGUGAAUCUGCGAAUUCAGCUGU [C32A U64A] = Fulfilled
GGGGGCCACAGCAGAAGCGUUCACGUCGCGGCCCCUGUCAGAUUCUGGUGGCUCUGCGAAUUCUGCUGU [A51G A52C] = Fulfilled
GUGGGCCACAGUAGAAGCGUUCACGUCGCGGCCCCUGUCAGAUUCUGGUGAAUCUGCGAAUUCUGCUGU [G2U C12U] = Not fulfilled
GGGGGCCACAGCAGUAGCGUUCACGUCGCGGCCCCUGUCAGAUUCUGGUGAAUUUGCGAAUUCUGCUGU [A15U C54U] = Fulfilled
GGGGGCCACAGCAGAAGGGUUCACGUCGCGGCCCCUGUCAGAUUCUGGUGAAUCUGCCAAUUCUGCUGU [C18G G58C] = Not fulfilled
GGGAGCCACAGCAGAAGCGUUCACGUCGCGGCCCGUGUCAGAUUCUGGUGAAUCUGCGAAUUCUGCUGU [G4A C35G] = Not fulfilled
GGGGGGCACAGCAGAAGCGUUCACGUCGCGGCCCAUGUCAGAUUCUGGUGAAUCUGCGAAUUCUGCUGU [C6G C35A] = Not fulfilled
